The molecules listed here are annotated with their pest or weed control at 250 g/ha.
- Tested on: Alopecurus myosuroides (ALOMY)
- assayText: Test 1A glasshouse assay for herbicidal activity, pre-emergence
- Assay type: in vivo
- setupConditions: 312 h, 250 g/ha, evaluated after 13 days, read-out: percentage phytotoxicity ALOMY
Reply numerically in %, unit not repeated.

Sample records with pest or weed control at 250 g/ha:
C#Cc1cc(C)c(C2C(=O)CC(c3ccccn3)CC2=O)c(C)c1 (centres unmarked) [Compound X-4, reference compound] :: 70
Cc1cc(C#CCl)ccc1C1C(=O)C(C)(C)OC(C)(C)C1=O [Compound A-7] :: 80
C#Cc1cc(Cl)c(C2C(=O)C3CCC(C3)C2=O)c(OC)c1 (centres unmarked) [Compound B-3] :: 80

Endpoint output: pest or weed control at 250 g/ha of CC#Cc1ccc(C2C(=O)C(C)(C)OC(C)(C)C2=O)c(C)c1 [Compound A-1] . Value? 90

###

The compounds listed here are annotated with their pest or weed control at 250 g/ha.
- System: Abutilon theophasti Medik. (ABUTH)
- assayText: Test 1A glasshouse assay for herbicidal activity, post-emergence
- Format: in vivo
- setupConditions: 312 h, 250 g/ha, evaluated after 13 days, read-out: percentage phytotoxicity ABUTH
- Protocol: Seeds of a variety of test species were sown in standard soil in pots. […] After 13 days for pre and post-emergence, the test was evaluated visually for percentage phytotoxicity to the plant (where 100=total damage to plant; 0=no damage to plant). […]

Sample records with pest or weed control at 250 g/ha:
CC#Cc1cc(C)c(C2C(=O)CC(CCSC)CC2=O)c(C)c1 (stereo not drawn) :: 60%
CCC#Cc1cc(Cl)c(C2C(=O)C3CCC(C3)C2=O)c(OC)c1 (stereo not drawn) :: 70%

Endpoint output: pest or weed control at 250 g/ha of CC#Cc1cc(Cl)c(C2=C(OC(=O)c3ccc(Cl)cc3)CC(C3CCOCC3)CC2=O)c(OC)c1 (stereo not drawn) . Value? 80%

###

- System: Lolium perenne (LOLPE)
- assayText: Test 1B glasshouse assay for herbicidal activity, post-emergence
- Format: in vivo
- setupConditions: 360 h, 30 g/ha application rate
Criterion: pest or weed control at 30 g/ha meeting or surpassing 40%. Met: true. Not met: false.

CC#Cc1cc(C)c(C2C(=O)C3CCC(C3)C2=O)c(C)c1 (stereo not drawn) [Compound A-5] :: false
CC#Cc1cc(C)c(C2=C(OC(=O)OC)CC(c3ccccn3)CC2=O)c(C)c1 (stereo not drawn) [Compound A-14] :: true
CC#Cc1cc(C)c(C2=C(OC(C)=O)CC(c3ccccn3)CC2=O)c(C)c1 (stereo not drawn) [Compound A-15] :: true
CC#Cc1cc(C)c(C2C(=O)C3CCC(C3)C2=O)c(OC)c1 (stereo not drawn) [Compound A-10] :: false
CC#Cc1cc(Cl)c(C2C(=O)C3CCC(C3)C2=O)c(OC)c1 (stereo not drawn) [Compound A-12] :: false
CC#Cc1cc(Cl)c(C2C(=O)C3CCC(C3)C2=O)c(OCC)c1 (stereo not drawn) [Compound A-16] :: false

I'd appreciate it if you could say whether CC#Cc1cc(C)c(C2C(=O)CC(CC3CCOCC3)CC2=O)c(C)c1 (stereo not drawn) [Compound A-9] has pest or weed control at 30 g/ha at least equal to 40%. true
